# reported pKd; entries follow
Target: T1, Human FAP ectodomain + poly-lys-tag + his6-tag (human, UniProt Q12884 27-760)
T1 construct: also called hu FAP
Assay: SPR (ProteOn XPR36), purified Fab, monovalent binding
Note on pKd: it is the negative log10 of concentration, concentration in mol/L.

The recorded pKd for 29B11 Fab (Fab, V domains shown, also called clone 29B11) VH: EVQLLESGGGLVQPGGSLRLSCAASGFTFSSYAMSWVRQAPGKGLEWVSAIIGSGGITYYADSVKGRFTISRDNSKNTLYLQMNSLRAEDTAVYYCAKGWFGGFNYWGQGTLVTVSS VL: EIVLTQSPGTLSLSPGERATLSCRASQSVTSSYLAWYQQKPGQAPRLLINVGSRRATGIPDRFSGSGSGTDFTLTISRLEPEDFAVYYCQQGIMLPPTFGQGTKVEIK is 10.46

The recorded pKd for 23C10 Fab (Fab, V domains shown, also called clone 23C10) VH: EVQLLESGGGLVQPGGSLRLSCAASGFTFSSSAMSWVRQAPGKGLEWVSAISTNGNYTYYADSVKGRFTISRDNSKNTLYLQMNSLRAEDTAVYYCAKGWLGNFDYWGQGTLVTVSS VL: EIVLTQSPGTLSLSPGERATLSCRASQSVSRSYLAWYQQKPGQAPRLLIIGASTRATGIPDRFSGSGSGTDFTLTISRLEPEDFAVYYCQQGQVIPPTFGQGTKVEIK is 8.80

The recorded pKd for 5F1 Fab (Fab, V domains shown, also called clone 5F1) VH: EVQLLESGGGLVQPGGSLRLSCAASGFTFSSYAMSWVRQAPGKGLEWVSAIISSGASTYYADSVKGRFTISRDNSKNTLYLQMNSLRAEDTAVYYCAKGWFGGFNYWGQGTLVTVSS VL: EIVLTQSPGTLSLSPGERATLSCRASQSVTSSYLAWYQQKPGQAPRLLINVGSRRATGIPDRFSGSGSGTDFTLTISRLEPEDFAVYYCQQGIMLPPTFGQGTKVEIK is 9.61

The recorded pKd for 22A3 Fab (Fab, V domains shown, also called clone 22A3) VH: EVQLLESGGGLVQPGGSLRLSCAASGFTFSSYAMSWVRQAPGKGLEWVSAIIGSGSITYYADSVKGRFTISRDNSKNTLYLQMNSLRAEDTAVYYCAKGWFGGFNYWGQGTLVTVSS VL: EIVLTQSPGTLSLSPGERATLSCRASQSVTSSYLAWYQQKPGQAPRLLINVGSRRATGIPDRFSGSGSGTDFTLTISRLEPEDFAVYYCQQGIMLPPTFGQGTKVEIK is 10.47

The recorded pKd for 16F1 Fab (Fab, V domains shown, also called clone 16F1) VH: EVQLLESGGGLVQPGGSLRLSCAASGFTFSSYAMSWVRQAPGKGLEWVSGIIGSGGITYYADSVKGRFTISRDNSKNTLYLQMNSLRAEDTAVYYCAKGWFGGFNYWGQGTLVTVSS VL: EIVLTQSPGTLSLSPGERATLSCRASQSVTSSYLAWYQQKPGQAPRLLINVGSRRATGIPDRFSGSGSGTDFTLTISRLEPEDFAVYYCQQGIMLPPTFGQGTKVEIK is 9.71

Origin of measurements: patent US20110064751A1
